assayConditions: 303.15 K; 101.33 kPa; Liquid; Linear variable-path acoustic interferometer
readoutName: speed of sound (m/s)
Answer in m/s, number only, no unit symbol.

In: Quick one: speed of sound for NCc1ccccc1 [benzylamine] ?
Out: 1538.2

In: Quick one: speed of sound for C1COCCO1 [1,4-dioxane] ?
Out: 1321

In: Quick one: speed of sound for CCCCCC [hexane] ?
Out: 1051.2

In: Quick one: speed of sound for C1CCOC1 [tetrahydrofuran] ?
Out: 1252.2

---

assayConditions: 303.15 K; 101.33 kPa; Liquid; Capillary tube (Ostwald / Ubbelohde) method
Numbers after ± are expanded uncertainties.
readoutName: viscosity
Reply with a number, then the unit it belongs to.

In: Quick one: viscosity for `C1COCCO1` ?
Out: 1.08 ± 0.04 mPa·s

In: Quick one: viscosity for `NCc1ccccc1` ?
Out: 1.43 ± 0.04 mPa·s

In: Quick one: viscosity for C1CCOC1 [tetrahydrofuran] ?
Out: 0.46 ± 0.04 mPa·s

In: Quick one: viscosity for `CCCCCC` ?
Out: 0.36 ± 0.04 mPa·s
